test system: SJSA-1; assay: cells; format: functional, cell-based, Homo sapiens; settings: Homo sapiens, SJSA-1;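 also: growth inhibition of human SJSA-1 cells, read out through a cell viability measurement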
Description: SANGER: Inhibition of human SJSA-1 cell growth in a cell viability assay.
pIC50: −log10 of the molar value.
READOUT_TYPE: pIC50

                                   compound  experimental_system  measurement_qualifier  test_value
0  CC(=O)O[C@@H]1[C@@H](OC(C)=O)[C@@H](O)[C@H](Oc2c(-c3ccc(O)cc3)oc3cc(O)cc(O)c3c2=O)O[C@H]1C               SJSA-1                      <        5.00
1                     COC(=O)CNC(=O)C(=O)OC               SJSA-1                      =        3.56
2  CN(C)C/C=C/C(=O)Nc1cc2c(Nc3ccc(F)c(Cl)c3)ncnc2cc1O[C@H]1CCOC1 [AFATINIB]               SJSA-1                      <        6.30
3  COc1ccc(-c2ccc3c(N4CCOC[C@@H]4C)nc(N4CCOC[C@@H]4C)nc3n2)cc1CO [AZD-8055]               SJSA-1                      =        6.35
